These data points were gathered from the supplement of paper PMC9170038.

Catalogue of apparent KD of K4 kissing-loop reporter readings, one per entry.
system: K4 kissing-loop RNA reporter; experiment: apparent KD of K4 kissing-loop reporter; higher = weaker reporter binding; conditions: Eterna round: R107; input ligand: tryptophan 2.4 mM;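 also: bound reporter read as fluorescence of individual clusters on recovered sequencing chips by microscopy, with normalized cluster intensities fitted with a binding model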
Write the number in nM without appending the unit.

Task item: State the recorded apparent KD of K4 kissing-loop reporter for this entry: CUGACGAUGACACGGUGGCCGCUGGUCGUGCGAGGACCGGUACGGCCGCCACUCGCAUGAGUGAUGUUCAUGUGUCGUCGUCGUC [#08 K4 Tryptophan A Exclusion]
Reply: 118

Task item: State the recorded apparent KD of K4 kissing-loop reporter for this entry: "GCCGUACGCAUGGAUACCAGAGAUGUUAAUCUCGAUGCCAGUGAUGUUGGCUUUAGCAUACUCCCUUGGCAGCCAUGCGUACGGC"
Reply: 267

Task item: State the recorded apparent KD of K4 kissing-loop reporter for this entry: UGGACAUGACUCGAUAAGAGUCAAUGGGAUACCAGUGACGAAAGUCACCCUUGGCAGCUCAACUGCCAGUGAUGUUGGUAGUCCA [Astros-Elo-mod#2]
Reply: 166

Task item: State the recorded apparent KD of K4 kissing-loop reporter for this entry: AGGAGCGUGCGAUGCAAAUCGCACGCUCCUCGAGGACCGGUACGGCCGCCACUCGCUCGCGCCGAGUGAUGUUCGGCCGGCGAAC [#2 Same State - Tryptophan A Attempt #10 (HarryS)]
Reply: 452

Task item: State the recorded apparent KD of K4 kissing-loop reporter for this entry: UGUCAUUGGUCGGCCGCCACUUCGUAUGAAGUGAUGUUUUGUAGAUUGUGUUGAAAGGUGUGGUGAAGGACCGGGACCGAUGACU [FiskerMod 23 - Jieux - Same State - Tryptophan B]
Reply: 769

Task item: State the recorded apparent KD of K4 kissing-loop reporter for this entry: AAGUCAUACAGAAGGAGCGUGUUUUAUAAUUUAUUUUCAUGAUCGAGUGAUGUUCGAUAUACACAGGUAGGUCGCUGUAUAAUAA [JR_SSArginiB_Sub007]
Reply: 103

---

test system: MS2 coat protein; experiment: apparent KD of MS2 coat protein; designed switch direction (-1 OFF switch, 1 ON switch): -1; higher = weaker reporter binding; conditions: input ligand: FMN 200 uM
MEASURED PARAMETER: apparent KD of MS2 coat protein (nM)
Write the number in nM without appending the unit.

Worked cases, answers included:
Task item: State the recorded apparent KD of MS2 coat protein for this entry: CACCUGAAGACAGGAUAUCAUACAUGAGGAUCACCCAUGUAAUAAAUGAGAAUUUCGAAUGUAAUUGAGAAGGGUCAAUAAGGC [Ostricism 96 - Jieux - Exclusion NG 2] (Eterna round: R96, puzzle: Exclusion NG 2)
Reply: 58.7

Task item: State the recorded apparent KD of MS2 coat protein for this entry: CAAAUCAGGCGAGGAUAUCCGAAAGGAAGUGUAGGAGAAGGCGCGAAAUAUAAAACAUGAGGAUCACCCAUGUCGUCCCGUGUG [PowerStrip EXNG 1.21] (Eterna round: R96, puzzle: Exclusion NG 1)
Reply: 169

Task item: State the recorded apparent KD of MS2 coat protein for this entry: UUUAAUUGUCACAUGGGUGACAUGAGGAUCACCCAUGUCACAAGCUUUUUGCUCGUCUUAUAAUUAACCCAUGUGAC [Stov1/12-A1] (Eterna round: R97, puzzle: Sensor, turn-off variant 1)
Reply: 13.4

***
Task item: State the recorded apparent KD of MS2 coat protein for this entry: CCUCAGAUGUAGGAUAUCGCCCAGACAUUGCGGCGAGAAGGACAAACAUGAGGAUCACCCAUGUUAGUUUAGCA [Eternabot (L2) Solution 92] (Eterna round: R97, puzzle: Exclusion 6)
Reply: 257

---

tested on: MS2 coat protein; experiment: apparent KD of MS2 coat protein; designed switch direction (-1 OFF switch, 1 ON switch): -1; higher = weaker reporter binding; conditions: Eterna round: R95; input ligand: microRNA oligo, concentration not stated
# label = Satisfied if apparent KD of MS2 coat protein >= 40 nM else Not satisfied

Example cases with answers are listed next.
Task item: hey, is apparent KD of MS2 coat protein for this one >= 40 nM? AAAAAACAUGAGGAUCACCCAUGUCAGGAUAUCCGAAAAGAAAAGAAAAAGAAAAAAGGGAGAAGGGACAAAAA [April's ex-date #2] (puzzle: Exclusion 1)
Reply: Satisfied

Task item: hey, is apparent KD of MS2 coat protein for this one >= 40 nM? ACAAGCUUUUUGUUCGUCUUAUAAUAUUCAAUAAGGAUAACAUGAGGAUCACCCAUGUAACAAAGACGGACUCAUGU [Sesor Array 15 - Jieux - Sensor v3, turn-off variant 2] (puzzle: Sensor v3, turn-off variant 2)
Reply: Satisfied

Task item: hey, is apparent KD of MS2 coat protein for this one >= 40 nM? GGUUGGCGAGGAUAUACAUGAGGAUCACCCAUGUGAGAGAUACUAGUGAGGUCGAUUAGUAGAAGGCGCUGACG [JL-ex3-2.01 salish99 mod] (puzzle: Exclusion 3)
Reply: Not satisfied

Task item: hey, is apparent KD of MS2 coat protein for this one >= 40 nM? CAGCCUCAGGUUAGGAUAUACGCGUGGCCGAAGGAGUAGAAGGGACAUGAGGAUCACCCAUGUGGGUUCAAAUG [Onsoisgeso] (puzzle: Brourd's mod of Exclusion 4)
Reply: Satisfied

Here is the next item to consider.
Task item: hey, is apparent KD of MS2 coat protein for this one >= 40 nM? UGGUAACAUGAGGAUCACCCAUGUCAGGAUAUCAGGAAGAAGAGAGGAGAGUAGAAGAUGAGAAGGGACUAUAU [Excluse me! 10 - Jieux - Exclusion 1] (puzzle: Exclusion 1)
Reply: Not satisfied

---

tested on: MS2 coat protein; test: apparent KD of MS2 coat protein; designed switch direction (-1 OFF switch, 1 ON switch): 1; higher = weaker reporter binding; conditions: input ligand: FMN 200 uM
Catalogue of apparent KD of MS2 coat protein readings, one per entry.
Put your answer as a value accompanied by its unit after it.

Task item: State the recorded apparent KD of MS2 coat protein for this entry: AGAUCAUGACGAGGAUAUGGUACAUGAGGAUCACCCAUGUAUGUACCACGACGGAAACGUCGAAUCCAGAAGGCGUCGUGAUCA [Mat - Same State NG 2 - JL mod - D23] (Eterna round: R96, puzzle: Same State NG 2)
Reply: 47.5 nM

Field: next sequence
Task item: State the recorded apparent KD of MS2 coat protein for this entry: GAGUGGCAGUUAGGAUAUACAGUGAUAAUGAUAGUAGAAGGAACAGACAUGAGGAUCACCCAUGUAGGACUAAUCCAGAGAGAG [Parity 33 - Jieux - Same State NG 1] (Eterna round: R96, puzzle: Same State NG 1)
Reply: 30.8 nM

---

system: MS2 coat protein; assay: apparent KD of MS2 coat protein; designed switch direction (-1 OFF switch, 1 ON switch): 1; higher = weaker reporter binding; details: Eterna round: R95; input ligand: FMN 200 uM
Catalogue of apparent KD of MS2 coat protein readings, one per entry.
Write the number in nM without appending the unit.

Worked cases, answers included:
Task item: State the recorded apparent KD of MS2 coat protein for this entry: UCUUGGUUUUUGCUCGUUUUUUGUGUUGAACAUGAGGAUCACCCAUGUAUUGUACAAUCCGGUUUAAUAAUGGUCCG [JMF 51] (puzzle: Sensor for hsa-mir-208a)
Reply: 35.2

Task item: State the recorded apparent KD of MS2 coat protein for this entry: UAGAGAGGAAGCGAGGAUAUCGUGUUAGGUACAUGAGGAUCACCCAUGUUGUAGGUAGAGGUAGGCGAGAAGGCGCAGGAGAGGA [JR_SS2_Sub092] (puzzle: Same State 2)
Reply: 35.6

Task item: State the recorded apparent KD of MS2 coat protein for this entry: AGCGAGAUAGGCAAGGAUAUGUAGUUUGGCACAUGAGGAUCACCCAUGUCAAUCCAUUUUUUGGAACAGAAGGUGCAUUCUCUUU [ak fourth] (puzzle: Same State 2)
Reply: 33.4

***
Task item: State the recorded apparent KD of MS2 coat protein for this entry: AGGUGGUGUGGAAAGGAUAUACUGUUGAGGACAUGAGGAUCACCCAUGUGGUAGAGGACGUAAGGGUAGAAGGUUCGGGAUUGGU [JR_SS@_Sub021] (puzzle: Same State 2)
Reply: 46.2

Task item: State the recorded apparent KD of MS2 coat protein for this entry: GUAGCAUGCAGGCAGGAUAUUCAUAUUAAAACAUGAGGAUCACCCAUGUAGGCCAGAAGGCCUUGGGAGAAGGGCCACAUGCUAC [Xeonanis - 17] (puzzle: Same State 2)
Reply: 36.9

---

Catalogue of apparent KD of MS2 coat protein readings, one per entry.
system: MS2 coat protein; assay: apparent KD of MS2 coat protein, switch ON state; designed switch direction (-1 OFF switch, 1 ON switch): -1; higher = weaker reporter binding; conditions: FMN input: 0 or 200 uM; Eterna round: R93 (includes R88 designs)
Write the number in nM without appending the unit.

Worked cases, answers included:
Task item: State the recorded apparent KD of MS2 coat protein for this entry: AAAACUGGAGGAUAUACAUGAGGAUCACCCAUGUGUGGGUGGGCUGUGUCGGCGUCAGGUAGAAGGCCACAAAA [Gilly Gone Silly 33 - Jieux - Exclusion 3]
Reply: 201

Task item: State the recorded apparent KD of MS2 coat protein for this entry: AAAAAACAUGAGGAUCACCCAUGUGAGGAUAUGCAAAACUUAUAUAAAAAGGGAAAAAGUAGAAGGCACAAAAA [LROPPY Exclusion 1 - v09_water mod]
Reply: 30.4

Task item: State the recorded apparent KD of MS2 coat protein for this entry: CAACAGUCAGGAUAUGCAAAAAAAACGCAACGCAAAAAAAAGCAGAAGGGACAUGAGGAUCACCCAUGUUGUCG [Exclusion4-03]
Reply: 29.5

Task item: State the recorded apparent KD of MS2 coat protein for this entry: GUAGAGUGAGGAUAUGAUUAAAAGAAGGGAAAGAGACAGCAUCAGAAGGCACAUGAGGAUCACCCAUGUAUGAA [JR_Exc004_Sub1224]
Reply: 26.9

Task item: State the recorded apparent KD of MS2 coat protein for this entry: AAGAACGAAGGAUAUACAUGAGGAUCACCCAUGUAAAAGAAAGAAAGGGAAAAGAAAAGUAGAAGGUCGAAGAA [Sekhemkheperre Osorkon I]
Reply: 28.3

Task item: State the recorded apparent KD of MS2 coat protein for this entry: AACUCGUCAGGAUAUGCGCACAGAUAAUACGCUACACAAAUGCAGAAGGGACAUGAGGAUCACCCAUGUAAAUA [JR_Exc004_Sub504]
Reply: 42.6

Task item: State the recorded apparent KD of MS2 coat protein for this entry: AAAACUGGAGGAUAUACAUGAGGAUCACCCAUGUGUGGGUAUACUGUGUCGGCGUCAGGUAGAAGGCCAAAAAA [Gilly Gone Silly 29 - Jieux - Exclusion 3]
Reply: 146

Task item: State the recorded apparent KD of MS2 coat protein for this entry: AAGGAUCGAGGAUAUACAUAGAUACAGAUACAUGUAGACGUACAUGAGGAUCACCCAUGUAGAAGGCGAUCAUA [AJ 27]
Reply: 150

Task item: State the recorded apparent KD of MS2 coat protein for this entry: UUGGGACAUGAGGAUCACCCAUGUAAGGAUAUUGGCGCGCCGGCUCUGUCUGUUCCGCCGAGAAGGUACACGUU [Exclusion I]
Reply: 45.5

Task item: State the recorded apparent KD of MS2 coat protein for this entry: ACCGAUCGAGGAUAUACAUGAGGAUCACCCAUGUAACCCAGAAGAAAGGCCUCAGGAUGUAGAAGGCGACGCAA [JR_Exc003_Sub406]
Reply: 16.3

***
Task item: State the recorded apparent KD of MS2 coat protein for this entry: AAAUGACAUGAGGAUCACCCAUGUCAGGAUAUGACUUGAAAAAAAAAAAAAAAACAUGUCAGAAGGGACAUGAA [Design 48: Sub-opt E]
Reply: 17.2

Task item: State the recorded apparent KD of MS2 coat protein for this entry: AAGAAUGCAGGAUAUACAUGAGGAUCACCCAUGUAAAAGAAAGAAAGGGAAAAGAAAAGUAGAAGGGCAAAGAA [Usermaatre-setepenamun Osorkon II]
Reply: 35.8

Task item: State the recorded apparent KD of MS2 coat protein for this entry: AAAAAACAUGAGGAUCACCCAUGUGAGGAUAUGCGAAAAAAAAAAUAAAAAAAAAAAAGUAGAAGGCACACCAA [Mat - Exclusion 1 - Eli mod - D55]
Reply: 41.9

Task item: State the recorded apparent KD of MS2 coat protein for this entry: GCUGGGCAAGGAUAUACAUGAGGAUCACCCAUGUGAGAGAAAAAAGUGAGAAAGAAAAGUAGAAGGUGCUUAGG [salish99-ex3-119]
Reply: 45.8

Task item: State the recorded apparent KD of MS2 coat protein for this entry: GCUGGCCAAGGAUAUACAUGAGGAUCACCCAUGUGAGAGAAAAAAGUGAGAAAGAAAAGUAGAAGGUGGUUAGG [salish99-ex3-114]
Reply: 43.9

Task item: State the recorded apparent KD of MS2 coat protein for this entry: GAAAAUCGAGGAUAUACAUGAGGAUCACCCAUGUCAAAAAAUGACUACACAAAAGAAAGUAGAAGGCGAUAAAG [Mat - Exclusion 3 - Mayanna mod - D130]
Reply: 28.8

Task item: State the recorded apparent KD of MS2 coat protein for this entry: AGCUAGUCAGGAUAUACGAACAGGUCAAAAGACCUGAAGGGACAUGAGGAUCACCCAUGUAGAAGGGACUAGCA [Mat - Exclusion 2 - JL mod - D28]
Reply: 25.8
